Source: PubChem BioAssay (NCI)

Assay: NCI Yeast Anticancer Drug Screen. Data for the mlh1 rad18 strain (AID 175)
Details: S. cerevisiae mlh1 rad18 strain growth inhibition; at 50.0 µM; active compounds read high
This is part of a sample that, as a whole, favours compounds with a hit. Of some 79,000 tested, about 15% had one in any assay.
growth inhibition values, listed per item
Please give a number only; it is taken to be in %.

The following molecules have reported results that may help.
CC/C=C(C)/C=N\NC(=O)c1ccc[n+](C)c1 | 2.55
COc1ccc(C2=NN(C(C)=O)c3nc4ccccc4nc3O2)cc1 | -12.6

// switching to the query molecule
Prompt: For the molecule shown here, CCCCNC(=O)c1ccccc1N , give the reported growth inhibition.
Completion: -22.4
